// provenance: ChEMBL document CHEMBL4837239

SYSTEM: CYP2C9 (Homo sapiens)
Sequence (P11712 whole entry): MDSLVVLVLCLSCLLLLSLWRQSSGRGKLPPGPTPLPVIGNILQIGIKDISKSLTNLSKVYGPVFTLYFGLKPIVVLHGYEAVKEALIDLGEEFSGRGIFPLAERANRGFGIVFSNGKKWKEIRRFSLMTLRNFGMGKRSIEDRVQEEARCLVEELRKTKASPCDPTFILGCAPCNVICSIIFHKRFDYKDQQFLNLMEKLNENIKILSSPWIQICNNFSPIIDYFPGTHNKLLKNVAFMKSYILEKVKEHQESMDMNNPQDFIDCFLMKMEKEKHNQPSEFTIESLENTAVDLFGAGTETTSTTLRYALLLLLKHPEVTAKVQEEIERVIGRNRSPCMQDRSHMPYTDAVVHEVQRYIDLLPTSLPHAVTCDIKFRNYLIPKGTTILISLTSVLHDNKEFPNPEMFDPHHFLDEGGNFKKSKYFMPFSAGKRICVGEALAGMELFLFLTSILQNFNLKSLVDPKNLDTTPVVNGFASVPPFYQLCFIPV
ASSAY PROCEDURE: Inhibition of CYP2C9 (unknown origin) at 10 uM relative to control
Type: ADME
inhibition at 10 µM values by entry

SMILES DATA	inhibition at 10 µM
CCN1CCN(c2ccc(Nc3ncc4scc(-c5cccc(OC)c5)c4n3)cc2)CC1	89.3%
CCN1CCN(c2ccc(Nc3ncc4scc(-c5cccc(NS(C)(=O)=O)c5)c4n3)cc2)CC1	93.6%
CCN1CCN(c2ccc(Nc3ncc4scc(-c5ccccc5)c4n3)cc2)CC1	92.1%

====

remaining at 1 h, 1 µM values by entry
ASSAY PROCEDURE: Metabolic stability in human liver microsomes assessed as compound remaining at 1 uM measured after 1 hr
Type: ADME, Microsome
ASSAY CONTEXT: read-out: Stabilty

SMILES DATA	remaining at 1 h, 1 µM (%)
CS(=O)(=O)Nc1cccc(-c2csc3cnc(Nc4ccccc4)nc23)c1	49.6
CCN1CCN(c2ccc(Nc3ncc4scc(-c5ccccc5)c4n3)cc2)CC1	92.6
CS(=O)(=O)Nc1cccc(-c2csc3cnc(Nc4ccc(N5CCC(O)CC5)cc4)nc23)c1	54.8
CCN1CCN(c2ccc(Nc3ncc4scc(-c5cccc(N(C)S(C)(=O)=O)c5)c4n3)cc2)CC1	57.2
CCN1CCN(c2ccc(Nc3ncc4scc(-c5cccc(C(=O)NC)c5)c4n3)cc2)CC1	71.1
CCN1CCN(c2ccc(Nc3ncc4scc(-c5cccc(S(C)(=O)=O)c5)c4n3)cc2)CC1	55.5
CCN1CCN(c2ccc(Nc3ncc4scc(-c5cccc(OC)c5)c4n3)cc2)CC1	83.7
CCN1CCN(c2ccc(Nc3ncc4scc(-c5cccc([N+](=O)[O-])c5)c4n3)cc2)CC1	73.1
CS(=O)(=O)Nc1cccc(-c2csc3cnc(Nc4ccc(N5CCCCC5)cc4)nc23)c1	58
CCN1CCN(c2ccc(Nc3ncc4scc(-c5cccc(N6CCCS6(=O)=O)c5)c4n3)cc2)CC1	73.4
CN(C)c1ccc(Nc2ncc3scc(-c4cccc(NS(C)(=O)=O)c4)c3n2)cc1	63.8
CCN1CCN(c2ccc(Nc3ncc4scc(-c5ccc6cc[nH]c6c5)c4n3)cc2)CC1	89.3
CCN1CCN(c2ccc(Nc3ncc4scc(-c5cccnc5)c4n3)cc2)CC1	68.9
